# Experiment: Embryo-foetal development study in rats
# Type: in vivo, rat
# Condition description: female, Wistar (Han), rat, in vivo, oral; embryo-foetal development study, sesame oil formulation (summary); read-out: NOAEL
Readout kind: NOAEL (mg/kg)
Report the value in mg/kg with no unit label.

Inquiry: Consider the compound shown here: "C=C(C)[C@@H]1CCC(C)=C[C@H]1c1c(O)cc(CCCC)cc1O" What is its recorded NOAEL?
Reply text: 100

---

# Experiment: Rat micronucleus assay
# Format: in vivo
# Condition description: Sprague Dawley, rat, in vivo; male rats, oral gavage; read-out: estimate of the maximum tolerated dose
Readout kind: MTD

Inquiry: Which measured MTD value corresponds to C=C(C)[C@@H]1CCC(C)=C[C@H]1c1c(O)cc(CCCC)cc1O [CBD-C4] ?
Reply text: ~500 mg/kg/day

---

# Experiment: 13-week oral toxicity study in rats
# Type: in vivo, rat
# Condition description: both sexes, rat, in vivo; 13-week daily oral gavage, rats
# Experimental: The objective of the study was to determine the toxicity of CBD-C4 following daily oral (gavage) administration to the rat for 4 and 13 weeks. The toxicokinetic profile of the CBD-C4 was also assessed. Groups of 10 male and 10 female rats were doses at 1, 10 and 100 mg/kg/day for either 4 or 13 weeks. Assessment of toxicity of CBD-C4 was based on mortality, clinical observations, post-dose observations, body weights, food consumption, ophthalmic observations, clinical and anatomic pathology. […]
Readout kind: NOAEL at 13 weeks
The answer consists of two parts: a number and, after it, its unit.

Inquiry: Can you look up the measured NOAEL at 13 weeks of "C=C(C)[C@@H]1CCC(C)=C[C@H]1c1c(O)cc(CCCC)cc1O" for me?
Reply text: 100 mg/kg/day
